These measurements were taken from paper PMC9907207.

# tgt: SARS-CoV-1 RBD (SARS-CoV (SARS-CoV-1), isolate not …, UniProt P59594)
measurement.type: binding result

binder="GAR16 (antibody, V domains shown) VH: EVQLVESGGGVVQPGGSLRLSCAASGFTFSNYDMHWVRQATGKGLEWVSAIGTAGDTYYPDSVKGRFTISRDNAKNSLYLQMNSLRAEDTAVYYCTRVVHSSDWTSWSAGIHNWFDSWGQGTLVTVSS VL: DIVMTQSPSSLSASVGDRVSITCRTSQSIRTYLNWYQQKPGKAPKLLIYASSSLQSGVPSRFSGSGSGTDFTLSISSLQPEDFATYYCQQSYSMPPWTFGQGTKLEIK" measurement_type="binding result" recorded_measurement=binds
binder="GAR13 (antibody, V domains shown) VH: EVQLVESGGGLVQPGGSLRLSCAASGFTFSNYDMHWVRQVTGKGLEWVSLIGTSGDTYYPGSVKGRFTISRDNAKNSLYLQMNSLRADDTAVYYCVRAAFDDHNIYSWFDSWGQGTLVTVSS VL: DIQMTQSPSSLSASVGDRVTITCRASQSIGRYLNWYQQKPGKAPKLLIYTASSLQSGVPSRFSGSGSGTEFTLTISSLQPEDFATYYCQQSYNIPPLTFGGGTKVEIK" measurement_type="binding result" recorded_measurement=binds
binder="GAR20 (antibody, V domains shown) VH: QVQLQQWGAGLLKPSETLSLTCAVYGGSFSDFYWSWIRQPPGKGLEWIGQIDHSGSPNYNPSLKSRVTMSVDTSKNHFSLRLTSMTAADTAVYYCAKGPRYGSGSFDPLGQGTLVTVSS VL: SYELTQPPSVSVAPGQTARITCGGDNIGSKTVHWYQQKPGQAPVLVVYDDGDRPSGIPERFSGSNPGNTATLTISRVEAGDEADYYCQVWDSSSDSVVFGGGTELTVL" measurement_type="binding result" recorded_measurement=binds
